# System: HL-60(TB)
# Protocol text: NCI-60 anticancer screening (SRB)
# Format: cell-based
# Particulars: Homo sapiens, leukemia, one dose 10 μM, read-out: Growth Inhibition Percentage (GI %)
Value type: inhibition at 10 µM (%)

                                    molecule           value_type  bound_type  measured
 0  CCOC(=O)C1=C(N)N(c2ccc(Cl)cc2)C2=C(C(=O)CC(C)(C)C2)C1c1ccc(N2CCOCC2)cc1 (racemic)  inhibition at 10 µM           <        10
 1  CCOC(=O)C1=C(N)N(c2ccccc2)C2=C(C(=O)CC(C)(C)C2)C1c1cccc(Cl)c1Cl (racemic) [10a]  inhibition at 10 µM           =        54
 2  CCOC(=O)C1=C(N)N(c2ccc(Cl)cc2)C2=C(C(=O)CC(C)(C)C2)C1c1ccccc1Cl (racemic)  inhibition at 10 µM           =        75
 3  CCOC(=O)C1=C(N)N(c2ccc(Cl)cc2)C2=C(C(=O)CC(C)(C)C2)C1c1ccccn1 (racemic) [12c]  inhibition at 10 µM           <        10
 4  CCOC(=O)C1=C(N)N(c2ccccc2)C2=C(C(=O)CC(C)(C)C2)C1c1ccc([N+](=O)[O-])cc1 (racemic)  inhibition at 10 µM           <        10
 5  CCOC(=O)C1=C(N)N(c2ccccc2)C2=C(C(=O)CC(C)(C)C2)C1c1ccccn1 (racemic) [12a]  inhibition at 10 µM           <        10
 6  CCOC(=O)C1=C(N)N(c2ccc(Cl)cc2)C2=C(C(=O)CC(C)(C)C2)C1c1ccc([N+](=O)[O-])cc1 (racemic)  inhibition at 10 µM           =        22
 7  CCOC(=O)C1=C(N)N(c2ccc(C)cc2)C2=C(C(=O)CC(C)(C)C2)C1c1ccccc1Br (racemic)  inhibition at 10 µM           =       111
 8  CCOC(=O)C1=C(N)N(c2ccccc2)C2=C(C(=O)CC(C)(C)C2)C1c1ccc(N2CCOCC2)cc1 (racemic)  inhibition at 10 µM           <        10
 9  CCOC(=O)C1=C(N)N(c2ccccc2)C2=C(C(=O)CC(C)(C)C2)C1c1ccc(Cl)cc1 (racemic)  inhibition at 10 µM           =        94
10  CCOC(=O)C1=C(N)N(c2ccc(Cl)cc2)C2=C(C(=O)CC(C)(C)C2)C1c1ccc(OC)cc1 (racemic)  inhibition at 10 µM           <        10
11  CCOC(=O)C1=C(N)N(c2ccc(Cl)cc2)C2=C(C(=O)CC(C)(C)C2)C1c1ccc(Cl)cc1 (racemic)  inhibition at 10 µM           =        62
12  CCOC(=O)C1=C(N)N(c2ccccc2)C2=C(C(=O)CC(C)(C)C2)C1c1ccc(OC)cc1 (racemic)  inhibition at 10 µM           <        10
13  CCOC(=O)C1=C(N)N(c2ccc(C)cc2)C2=C(C(=O)CC(C)(C)C2)C1c1ccccc1Cl (racemic)  inhibition at 10 µM           <        10
14  CCOC(=O)C1=C(N)N(c2ccc(Cl)cc2)C2=C(C(=O)CC(C)(C)C2)C1c1cccc(Cl)c1Cl (racemic) [10b]  inhibition at 10 µM           =        77
15  CCOC(=O)C1=C(N)N(c2ccc(C)cc2)C2=C(C(=O)CC(C)(C)C2)C1c1ccccn1 (racemic) [12b]  inhibition at 10 µM           <        10
16  CCOC(=O)C1=C(N)N(c2ccccc2)C2=C(C(=O)CC(C)(C)C2)C1c1ccccc1Cl (racemic)  inhibition at 10 µM           =       123
17  CCOC(=O)C1=C(N)N(c2ccc(Cl)cc2)C2=C(C(=O)CC(C)(C)C2)C1c1ccc(F)cc1 (racemic)  inhibition at 10 µM           =        32
18  CCOC(=O)C1=C(N)N(c2ccc(Cl)cc2)C2=C(C(=O)CC(C)(C)C2)C1c1ccc(Cl)cc1Cl (racemic) [10d]  inhibition at 10 µM           =        79
19  CCOC(=O)C1=C(N)N(c2ccccc2)C2=C(C(=O)CC(C)(C)C2)C1c1ccccc1Br (racemic)  inhibition at 10 µM           =        34
20  CCOC(=O)C1=C(N)N(c2ccccc2)C2=C(C(=O)CC(C)(C)C2)C1c1ccc(Cl)cc1Cl (racemic) [10c]  inhibition at 10 µM           =        99
21  CCOC(=O)C1=C(N)N(c2ccc(C)cc2)C2=C(C(=O)CC(C)(C)C2)C1c1ccc(Cl)cc1 (racemic)  inhibition at 10 µM           =        21
22  CCOC(=O)C1=C(N)N(c2ccccc2)C2=C(C(=O)CC(C)(C)C2)C1c1ccccc1OC (racemic)  inhibition at 10 µM           <        10
23  CCOC(=O)C1=C(N)N(c2ccc(C)cc2)C2=C(C(=O)CC(C)(C)C2)C1c1ccccc1OC (racemic)  inhibition at 10 µM           <        10
24  CCOC(=O)C1=C(N)N(c2ccccc2)C2=C(C(=O)CC(C)(C)C2)C1c1cccnc1 (racemic) [12d]  inhibition at 10 µM           <        10

----------
# Tested on: NCI-H460
# Protocol text: NCI-60 anticancer screening (SRB)
# Format: cell-based
# Particulars: Homo sapiens; NCI-H460, NSC lung cancer; one dose 10 μM; read-out: Growth Inhibition Percentage (GI %)
Overview of recorded inhibition at 10 µM for various molecules
Value type: inhibition at 10 µM (%)

>>> df
                                   molecule  unit_of_measurement  bound_type  measured
0  CCOC(=O)C1=C(N)N(c2ccccc2)C2=C(C(=O)CC(C)(C)C2)C1c1ccc(Cl)cc1Cl (racemic) [10c]                    %           =        82
1  CCOC(=O)C1=C(N)N(c2ccc(Cl)cc2)C2=C(C(=O)CC(C)(C)C2)C1c1ccc(Cl)cc1 (racemic)                    %           =        59
2  CCOC(=O)C1=C(N)N(c2ccccc2)C2=C(C(=O)CC(C)(C)C2)C1c1ccccc1OC (racemic)                    %           <        10
3  CCOC(=O)C1=C(N)N(c2ccc(C)cc2)C2=C(C(=O)CC(C)(C)C2)C1c1ccc(Cl)cc1 (racemic)                    %           =        21
4  CCOC(=O)C1=C(N)N(c2ccc(Cl)cc2)C2=C(C(=O)CC(C)(C)C2)C1c1ccc([N+](=O)[O-])cc1 (racemic)                    %           <        10
5  CCOC(=O)C1=C(N)N(c2ccc(Cl)cc2)C2=C(C(=O)CC(C)(C)C2)C1c1ccccn1 (racemic) [12c]                    %           <        10
6  CCOC(=O)C1=C(N)N(c2ccc(Cl)cc2)C2=C(C(=O)CC(C)(C)C2)C1c1ccccc1Br (racemic)                    %           =        43

----------
# Tested on: NCI-H460
# Protocol text: NCI-60 anticancer screening (SRB)
# Assay type: cell-based
# Particulars: Homo sapiens; NCI-H460, NSC lung cancer; one dose 10 μM; read-out: Growth Inhibition Percentage (GI %)
Value type: inhibition at 10 µM (%)

>>> df
                                   compound           value_type  unit_of_measurement  bound_type  measured
0  CCOC(=O)C1=C(N)N(c2ccccc2)C2=C(C(=O)CC(C)(C)C2)C1c1ccccn1 (racemic) [12a]  inhibition at 10 µM                    %           <        10
1  CCOC(=O)C1=C(N)N(c2ccccc2)C2=C(C(=O)CC(C)(C)C2)C1c1ccccc1Br (racemic)  inhibition at 10 µM                    %           =        20
2  CCOC(=O)C1=C(N)N(c2ccc(Cl)cc2)C2=C(C(=O)CC(C)(C)C2)C1c1ccc(N2CCOCC2)cc1 (racemic)  inhibition at 10 µM                    %           <        10
3  CCOC(=O)C1=C(N)N(c2ccccc2)C2=C(C(=O)CC(C)(C)C2)C1c1ccc(Cl)cc1 (racemic)  inhibition at 10 µM                    %           =        87
4  CCOC(=O)C1=C(N)N(c2ccccc2)C2=C(C(=O)CC(C)(C)C2)C1c1ccc(OC)cc1 (racemic)  inhibition at 10 µM                    %           <        10
5  CCOC(=O)C1=C(N)N(c2ccc(C)cc2)C2=C(C(=O)CC(C)(C)C2)C1c1ccccc1Br (racemic)  inhibition at 10 µM                    %           =        46
6  CCOC(=O)C1=C(N)N(c2ccc(C)cc2)C2=C(C(=O)CC(C)(C)C2)C1c1cccnc1 (racemic) [12e]  inhibition at 10 µM                    %           <        10
